For each of the molecules below, state its pKi.
Target: CB2 receptor (Homo sapiens, UniProt P34972)
Sequence (P34972 whole entry): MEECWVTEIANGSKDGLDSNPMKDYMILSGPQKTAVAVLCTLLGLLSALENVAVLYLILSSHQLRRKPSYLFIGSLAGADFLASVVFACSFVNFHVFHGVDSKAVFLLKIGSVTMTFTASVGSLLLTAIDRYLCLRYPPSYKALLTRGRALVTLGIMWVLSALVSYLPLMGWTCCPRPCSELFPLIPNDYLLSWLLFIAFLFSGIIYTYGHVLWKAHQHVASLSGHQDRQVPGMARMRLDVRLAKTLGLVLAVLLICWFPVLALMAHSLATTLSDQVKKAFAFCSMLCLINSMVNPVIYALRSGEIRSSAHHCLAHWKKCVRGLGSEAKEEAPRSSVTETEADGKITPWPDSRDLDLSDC
Give bare numbers, as −log10 of the molar value.

C=C(C)[C@@H]1CCC(C)=C[C@H]1c1c(O)cc(CCC)c(C(=O)OCCO)c1O [HECBDV, 2-hydroxyethylcannabidivarinolat] : 6.77
C=C(C)[C@@H]1CCC(C)C=C1c1c(O)cc(CCC)c(C(=O)OCCCCCC)c1O (stereo partly drawn) : 8.00

Item C=C(C)[C@@H]1CCC(C)C=C1c1c(O)cc(CCC)c(C(=O)OC2CCCCC2)c1O (stereo partly drawn) with CB2 receptor (Homo sapiens, UniProt P34972) - pKi?
8.34
